# Measurement Target: UniProt P35503
# Sequence (P35503 29-534): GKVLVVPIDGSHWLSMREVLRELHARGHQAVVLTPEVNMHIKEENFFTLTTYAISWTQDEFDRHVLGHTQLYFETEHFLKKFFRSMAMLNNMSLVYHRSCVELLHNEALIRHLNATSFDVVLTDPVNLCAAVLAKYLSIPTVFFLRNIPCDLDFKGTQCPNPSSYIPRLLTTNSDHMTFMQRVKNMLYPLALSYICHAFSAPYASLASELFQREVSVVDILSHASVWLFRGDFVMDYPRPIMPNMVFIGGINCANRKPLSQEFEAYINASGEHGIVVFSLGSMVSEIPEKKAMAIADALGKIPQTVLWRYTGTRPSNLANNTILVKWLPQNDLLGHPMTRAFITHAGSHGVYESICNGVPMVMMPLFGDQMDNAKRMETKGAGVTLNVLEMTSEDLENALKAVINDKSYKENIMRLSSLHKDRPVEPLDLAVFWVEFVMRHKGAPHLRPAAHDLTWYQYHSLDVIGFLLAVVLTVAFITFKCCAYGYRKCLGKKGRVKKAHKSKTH
# Method Notes: Inhibition of recombinant UGT1A3 activity (4-MU glucuronidation)
Value Type: Ki
# output: numeric value plus its unit

# input What value of Ki has been reported for the following compound? COc1ccc(-c2oc3c(CC=C(C)C)c(O[C@@H]4O[C@H](CO)[C@@H](O)[C@H](O)[C@H]4O)cc(O)c3c(=O)c2O[C@@H]2O[C@@H](C)[C@H](O)[C@@H](O)[C@H]2O)cc1 [Icariin]
# output 8 µM

====

# Measurement Target: UGT1A4 (Homo sapiens)
# Construct: purchased BD Gentest Corp. (Woburn, MA, USA); host or cells: baculovirus-infected insect cells
# Sequence (P22310 29-534): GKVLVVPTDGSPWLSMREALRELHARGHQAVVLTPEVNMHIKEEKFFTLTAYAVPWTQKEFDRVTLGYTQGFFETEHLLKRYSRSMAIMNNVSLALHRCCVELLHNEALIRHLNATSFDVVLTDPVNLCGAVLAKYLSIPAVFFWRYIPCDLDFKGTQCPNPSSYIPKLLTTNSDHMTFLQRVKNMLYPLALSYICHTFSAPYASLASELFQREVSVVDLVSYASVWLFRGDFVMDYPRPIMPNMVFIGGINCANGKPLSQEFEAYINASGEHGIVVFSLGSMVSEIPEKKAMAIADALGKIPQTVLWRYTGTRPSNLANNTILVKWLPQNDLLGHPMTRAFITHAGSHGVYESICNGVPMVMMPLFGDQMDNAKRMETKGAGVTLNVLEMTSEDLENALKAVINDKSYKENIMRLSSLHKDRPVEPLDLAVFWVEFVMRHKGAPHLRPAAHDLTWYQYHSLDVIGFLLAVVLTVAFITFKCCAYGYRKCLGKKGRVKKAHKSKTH
# Method Notes: Inhibition of recombinant UGT1A4 activity (TFP glucuronidation)
# Type: biochemical
# Assay Setup: recombinant human UGT1A4, 50 μM TFP, mean ± SD; read-out: IC50 for inhibition of UGT1A4 activity
Value Type: IC50 (µM)
Express your answer in µM, writing the number without its unit.

# input Return reported IC50; argument: COc1ccc(-c2oc3c(CC=C(C)C)c(O[C@@H]4O[C@H](CO)[C@@H](O)[C@H](O)[C@H]4O)cc(O)c3c(=O)c2O[C@@H]2O[C@@H](C)[C@H](O)[C@@H](O)[C@H]2O)cc1
# output 42.8
